system: SK-MEL-28; experiment: NCI tumour cell line growth inhibition, 48 h
Structures can show the parent of a compound that is named as a salt. Calls of active or inactive are those of the source. Cut-off read from the data, not from the text of the source: active = GI50 up to about 1.1 µM and inactive = higher. *1 amine or outer side, *2 acyl side, *3 side chain or, on linkers, in order; H or OH if unused. Where a SMILES comes first, the peptide text is derived from it. Bridges are numbered along the chain shown (N, C = ends). [ ]: non-standard residue; d: D form. The star is where a group is joined. ξ: configuration not given here. ξOrn(4,5-diOH) = O=C(C(CC(O)C(O)N[*:3])N[*:1])[*:2]; ξhTyr(βξ-OH,γξ-OH) = NC(C(=O)O)C(O)C(O)c1ccc(O)cc1; ξPro(3ξ-OH,4ξ-Me) = CC1CNC(C(=O)O)C1O; X55 = CCCCC/C=C/C/C=C\CCCCCCCC(=O)*; Hyp = O=C(O)[CH]1C[CH](O)CN1
Measured GI50 values are reported for all entries that follow.
measured_parameter: GI50

>  <compound>
CCN(CC)CCNc1ccc(CO)c2sc3ccccc3c(=O)c12 [HYCANTHONE MESYLATE]

>  <result>
9.68 µM (inactive)

$$$$
>  <compound>
CCCCC/C=C/C/C=C\CCCCCCCC(=O)NC1CC(O)C(O)NC(=O)C2C(O)C(C)CN2C(=O)C(C(C)O)NC(=O)C(C(O)C(O)c2ccc(O)cc2)NC(=O)C2CC(O)CN2C(=O)C(C(C)O)NC1=O (stereo not drawn) (X55-[ξOrn(4,5-diOH)]T[Hyp][ξhTyr(βξ-OH,γξ-OH)]T[ξPro(3ξ-OH,4ξ-Me)]; lactam 1-C; configuration not given here)

>  <result>
> 100 µM (inactive)

$$$$
>  <compound>
O=C(c1ccccc1)C(C(=O)c1ccccc1)c1nc2ccccc2sc1=O

>  <result>
> 25 µM (inactive)

$$$$
